- Tested on: CAKI-1 renal
- assay.method.text: NCI-60 one-dose screen, 48 h (100 = growth as untreated, 0 = no growth, -100 = all killed)
- condition.description: 10 µM unless noted
About 83,000 compounds went through this panel and 20% of them were active in at least one assay; those are over-represented in the sample as a whole.
parameter: growth (%)
Note: unit % is implicit; provide only the numeric part.

Here is how some molecules turned out for growth.
item.smiles	measured.target	unit.tag	test.result
O/N=C/c1ccncc1	CAKI-1 renal	%	84.3
COc1cnc2c(c1)C(=O)c1c-2n(CCCNC(C)C)c(=O)c2cc(Cl)ccc12	CAKI-1 renal	%	28.8
COc1cc(NC(=O)CSc2nc3ccc(Cl)cc3c(=O)n2-c2ccccc2)cc(OC)c1OC	CAKI-1 renal	%	83.3

Lab note: need growth with CAKI-1 renal for entry "O=C(CCl)N1c2ccccc2Oc2ccc3ccccc3c21" , please look it up.
-45.6

Request: "O=C1/C(=C/c2cc(F)cc(F)c2)Cc2cc(F)cc(F)c21"
77.6

Try this molecule next: "O=C(Nc1ccncc1)C(=O)c1cn(S(=O)(=O)c2cccc(Cl)c2F)c2ccccc12"
68.3

====

- System: MALME-3M melanoma
- assay.method.text: NCI-60 one-dose screen, 48 h (100 = growth as untreated, 0 = no growth, -100 = all killed)
- condition.description: 10 µM unless noted
This is part of a sample that, as a whole, favours compounds with a hit. Of some 83,000 tested, about 20% had one in any assay.
The entries below come with measured growth values attached.
Express the result in % but write the number alone.

compound	test.result
O=C1OC(/C=C/c2ccccc2)=NC/1=C/c1ccccc1[N+](=O)[O-]	96.9

Which measured growth belongs to "CC(=O)O[C@H]1CC[C@]2(C)[C@H]3CC=C4[C@@H]5CC(C)(C)CC[C@]5(C(=O)OCC(COC(=O)C(Cl)Cl)(COC(=O)C(Cl)Cl)NC(=O)C(Cl)Cl)CC[C@@]4(C)[C@]3(C)CC[C@H]2C1(C)C" , tested on MALME-3M melanoma?
83.1

Now this one: "C=C(C)[C@@H]1CC[C@]2(C(=O)NC(COC(=O)C(Cl)Cl)(COC(=O)C(Cl)Cl)COC(=O)C(Cl)Cl)CC[C@]3(C)[C@H](CC[C@@H]4[C@@]5(C)CC[C@H](OC(C)=O)C(C)(C)[C@@H]5CC[C@]43C)[C@@H]12"
96.2

Moving on to O=C1CCCN1C1CCN2CCCc3cccc1c32 (centres undefined)
94.2

====

Reported growth is given for each of the following molecules.
- Tested on: UACC-257 melanoma
- assay.method.text: NCI-60 one-dose screen, 48 h (100 = growth as untreated, 0 = no growth, -100 = all killed)
- condition.description: 10 µM unless noted
The panel holds about 83,000 compounds, 20% with a hit somewhere; the sample as a whole holds those more often.
Write the answer as a number in %, unit excluded.

// known answers, use as guide
item.smiles	growth, %
COc1ccc(N=C2CSc3nnc(-c4cc(F)c(Cl)cc4Cl)n3N2)cc1	38.5
O=C(N/N=C/c1ccccc1O)c1ccncc1	60.7
Cn1c(=O)c2c(nc(N/N=C/c3ccccc3Cl)n2C)n(C)c1=O	94.8

Fill in: growth of "COc1cc(/C=C\c2cc(/C=C\c3ccc(O)c(OC)c3)n(C(=O)Nc3ccc(C(F)(F)F)cc3)n2)ccc1O" is ___
25

Repeat with "N=C(N)c1ccc(NCCNc2ccc(C(=N)N)cc2)cc1"
62.3
